Reference source for all entries: patent US12227533B2

# ASSAY SUMMARY: Measurement of the approximate solubility at ambient temperature
# Type: physicochemical
# CONDITIONS: organic solvent or mixture, thermodynamic from solid, acetonitrile, 23° C.
ASSAY READOUT: solubility

Task: What does the record list as solubility for Cc1cc(OC[P@@]2(=O)OCC[C@@H](c3cccc(Cl)c3)O2)cc(C)c1Cc1ccc(O)c(C(C)C)c1 ?
Output: > 480 mg/mL

* * *

# ASSAY SUMMARY: Measurement of the approximate solubility at ambient temperature
# Type: physicochemical
# CONDITIONS: organic solvent or mixture, thermodynamic from solid, 2,2,2-trifluoroethanol, 23° C.
ASSAY READOUT: solubility

Task: What does the record list as solubility for Cc1cc(OC[P@@]2(=O)OCC[C@@H](c3cccc(Cl)c3)O2)cc(C)c1Cc1ccc(O)c(C(C)C)c1 ?
Output: ~195 mg/mL
